experiment: Rat PK PBL cassette (i.v.)
Format: in vivo, Sprague-Dawley rat
condition parameters: Sprague-Dawley, plasma, iv; male SD rat, 0.2 mg/kg i.v. cassette, n = 1; read-out: MRT
Description: While ML133 has found use as a Kir2.1 tool molecule across many disease models, the in vivo PK of this and related compounds within the dibenzylamine chemotype have not previously been characterized. […] Specifically, Sprague–Dawley (SD) rats were given 0.2 mg/kg of each Kir2.1 inhibitor (i.v. dosing, 4 compounds +1 control, total dose 1 mg/kg) with PK measured across set time points up to 24 h. […]
readout type: MRT

Input line: Tell me MRT reported for [2H]C([2H])([2H])Oc1ccc(CNCc2cccc3ccccc23)cc1 [Compound 7]
Output line: 74.4 min

Input line: Supply recorded MRT for COc1ccc(CNCc2ccc(-c3cccc(C)c3)cc2)cc1 [Compound 5r] here.
Output line: 78.6 min

Continuing:
Input line: Return value of MRT for input COc1ccc(CNCc2cccc(-c3ccccc3)c2)cc1 [Compound 5j] , no commentary.
Output line: 60 min

Input line: Determine its reported MRT: COc1ccc(CNCc2ccc(-c3cccc(OC)c3)cc2)cc1 [Compound 5s]
Output line: 59.4 min

Input line: Read off the recorded MRT for COc1ccc(CNCc2ccc(-c3ccccc3)cc2)cc1 [Compound 5k]
Output line: 64.8 min
